src = the supplement of paper PMC9170038

- Tested on: K4 kissing-loop RNA reporter;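 also: bound reporter read as fluorescence of individual clusters on recovered sequencing chips by microscopy, with normalized cluster intensities fitted with a binding model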
- Protocol Notes: apparent KD of K4 kissing-loop reporter; higher = weaker reporter binding
- Measurement Conditions: Eterna round: R107; input ligand: tryptophan 2.4 mM
Measurement Label: apparent KD of K4 kissing-loop reporter (nM)
Give bare numbers, in nM.

Sequence Data	Unit Spec	apparent KD of K4 kissing-loop reporter
GCAGACACGCAGUGAUGUUGCGAAACGGAAGGAGCGCGUGAAAACGCAGGUAGGUCGCCGAAACAUAAAUUAUAAUUUUGUUUGC [Arginine A K4 13]	nM	177

# map each sequence to its apparent KD of K4 kissing-loop reporter
1. UGGGAUGGUUCGGCCGCCACUAUGGUGCAGUGAUGUUGCAUCGUAGUAAAUCAUUCCAUUUACCGUAGGACCGGGAACCUUACGC [Mavelege]
2. UGUAUGUGAUUUGAUACCAGACCAGCUGGAGGAAUCUGAGUGAUGUUCAGGUAGGUUUGGGUCCCUUGGCAGCAAAUCGCAUACU [KL-SSTheoB17]
3. CCAUCGCUAUUCGAUACCAGUCAUCACAUCUUUGGUGUGAUAAAGGAGUGAUGUUCCCAAGACCCUUGGCAGCGAAUAGUGAUGG [Theophylline B K4 11]

**A:**
[86.2, 209, 250]

Could I get apparent KD of K4 kissing-loop reporter for every one of these entries?
1. CUAGCUAGCAUGGAAACAUGCUAGCUAGAUUAGGAUAUGACGUAAGUCAGAAGGGAUAAAUGGAGUGAUGUUCCGGACGCAAGUC [#2 Same State - FMN A Attempt #4 (HarryS)]
2. AGAGUUAUGCGAGGAUAUGCGGUUAGUACUCAAAGAGUACUAACGGCAGAGUGAUGUUCUGUGAAAGCAGAAGGUGCAUAACUCA [Omei KL FMN B SS B v9]

**A:**
1. 186
2. 1360
